Answer each item with its documented pIC50.
tested-on: UniProt P33981
Sequence (P33981 whole entry): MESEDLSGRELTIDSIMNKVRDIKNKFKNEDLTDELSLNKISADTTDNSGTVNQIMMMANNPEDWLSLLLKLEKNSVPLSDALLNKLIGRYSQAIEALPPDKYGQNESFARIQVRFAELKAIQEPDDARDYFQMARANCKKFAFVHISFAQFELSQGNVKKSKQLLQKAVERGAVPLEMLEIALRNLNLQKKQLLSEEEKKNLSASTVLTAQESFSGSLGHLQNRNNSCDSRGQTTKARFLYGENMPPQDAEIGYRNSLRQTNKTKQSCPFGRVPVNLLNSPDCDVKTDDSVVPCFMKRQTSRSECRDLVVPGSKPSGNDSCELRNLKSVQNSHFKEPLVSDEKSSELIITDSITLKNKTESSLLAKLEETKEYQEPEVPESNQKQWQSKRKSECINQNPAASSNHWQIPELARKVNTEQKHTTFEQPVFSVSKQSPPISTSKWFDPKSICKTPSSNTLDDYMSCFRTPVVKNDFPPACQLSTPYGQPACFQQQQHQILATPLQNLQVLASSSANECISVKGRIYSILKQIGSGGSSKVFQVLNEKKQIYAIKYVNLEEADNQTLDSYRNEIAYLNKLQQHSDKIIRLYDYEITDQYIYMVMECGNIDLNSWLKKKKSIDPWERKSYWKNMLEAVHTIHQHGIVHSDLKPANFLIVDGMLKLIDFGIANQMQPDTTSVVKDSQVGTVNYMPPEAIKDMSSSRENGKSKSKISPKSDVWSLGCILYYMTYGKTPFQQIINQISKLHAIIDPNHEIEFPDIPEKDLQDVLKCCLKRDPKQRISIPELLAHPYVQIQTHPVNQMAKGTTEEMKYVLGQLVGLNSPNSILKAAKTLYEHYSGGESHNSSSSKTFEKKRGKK
procedure-details: TTK assay: screening of TTK kinase activity suppressing action using p38 MAPK peptide
Format: biochemical
measurement-parameters: p38 MAPK peptide substrate; read-out: TTK IC50
Experimental: Screening of a compound having a TTK kinase activity suppressing action using p38 MAPK peptide […] From the resultant mixture, an aliquot of 1.7 μL was taken out and mixed with the reaction terminating solution (60 μl) in the wells of a 384-well microtiter plate (manufactured by Corning Incorporated) made of polypropylene. […] Based on the fluorescence value in the absence of a test substance, the suppression activity of a test substance was measured.
One number for each entry, as −log10 of the molar value.

Look up pIC50 with UniProt P33981 for this compound: CCC(CC)CNc1cc(NC2CCCCC2)nn2c(-c3ccc(C(=O)NC4CC4)cc3)cnc12
8.17

# returns recorded pIC50 (system: UniProt P33981) for CCC(C)Nc1cc(NCC2CCOCC2)c2ncc(-c3ccc(C(=O)NC4CC4)cc3)n2n1 (centres unmarked)
8.21

What is its pIC50 for UniProt P33981? Entry: CN1CCC(CNc2cc(NC3CCCCC3)nn3c(-c4ccc(C(=O)NC5CC5)cc4)cnc23)CC1
7.63

Reported pIC50 for UniProt P33981, given C#CC(CC)(CC)Nc1cc(NCC2CCOCC2)c2ncc(-c3ccc(C(=O)NC4CC4)cc3)n2n1 ?
7.72

Below are some compounds; for each one, tell me its pIC50.
1. COC(C)CNc1cc(NC2CCCCC2)nn2c(-c3ccc(C(=O)NC4CC4)cc3)cnc12 (centres unmarked)
2. CC(C)CCNc1cc(NC2CCCCC2)nn2c(-c3ccc(C(=O)NC4CC4)cc3)cnc12
3. CC1CCCCC1Nc1cc(NCC2CCOCC2)c2ncc(-c3ccc(C(=O)NC4CC4)cc3)n2n1 (centres unmarked)
4. CN(c1cc(NCC2CCOCC2)c2ncc(-c3ccc(C(=O)NC4CC4)cc3)n2n1)C1CCCCC1

8.35
7.98
8.54
8.51

* * *

Test system: A549
procedure-details: A549 assay: screening of cancer cell growth inhibiting compound
Assay type: cell-based
measurement-parameters: Homo sapiens, 72 h; A549 cells, three days, WST-8; read-out: A549 IC50
Assign IC50 to each entry below.

What IC50 value was documented for this compound, COCCNC(=O)c1ccc(-c2cn3c(-c4ccc(C(=O)NC5CC5)cc4)cnc3c(NCC(C)C)n2)cc1 ?
0.5 to 1 µM

Entry under review: CC(C)CNc1nc(-c2ccsc2)cn2c(-c3ccc(C(=O)NC4CC4)cc3)cnc12 . Reported IC50?
0.5 to 1 µM

May I ask what IC50 has been recorded for COCC(=O)Nc1ccc(-c2cn3c(-c4ccc(C(=O)NC5CC5)cc4)cnc3c(NCC(C)C)n2)cc1 ?
1 to 10 µM

For the 4 compounds below, give their IC50 values.
1. CC(=O)Nc1cccc(-c2cn3c(-c4ccc(C(=O)NC5CC5)cc4)cnc3c(NCC(C)C)n2)c1
2. Cn1cnc(CNc2cc(NC3CCCCC3)nn3c(-c4ccc(C(=O)NC5CC5)cc4)cnc23)c1
3. N#Cc1ccc(-c2cn3c(-c4ccc(C(=O)NC5CC5)cc4)cnc3c(NCCS(=O)(=O)N3CCCC3)n2)cc1
4. COC[C@@H]1CCCN1c1cc(NCC2CCOCC2)c2ncc(-c3ccc(C(=O)NC4CC4)cc3)n2n1

0.5 to 1 µM
0.05 to 0.5 µM
0.5 to 1 µM
0.05 to 0.5 µM
